- Tested on: DU145 (prostate cancer)
- ASSAY: Effect of compounds on tumor cell lines (assay of Latham et al.), DU145
- Format: cell-based
- COND: DU145 cells, 96 hours after treatment, 1 μM to 100 μM; read-out: DU 145 potency (IC50)
QUANTITY MEASURED: IC50

Please review the following examples before continuing.
>>> value_observed("COc1ccc(C=C(SCc2ccc(Cl)cc2)C(=O)c2ccc(Br)cc2)cc1O [Example 203]")
"1 to 10 µM"
>>> value_observed("CSc1ccc(/C=C(/SCc2ccc(Br)cc2)C(=O)c2ccc(C(=O)O)cc2)cc1 [Example 188]")
"25 to 50 µM"

Please find the next compound below.
Inquiry: Recorded IC50 for O=C(C(=Cc1c[nH]c2ccccc12)SCc1ccc(Cl)cc1Cl)c1ccc(Cl)cc1 [Example 118] , please?
Reply text: 10 to 25 µM
